Target: Cytochrome P450 1A2 (Homo sapiens) (UniProt P05177)
Sequence (P05177 whole entry, looked up): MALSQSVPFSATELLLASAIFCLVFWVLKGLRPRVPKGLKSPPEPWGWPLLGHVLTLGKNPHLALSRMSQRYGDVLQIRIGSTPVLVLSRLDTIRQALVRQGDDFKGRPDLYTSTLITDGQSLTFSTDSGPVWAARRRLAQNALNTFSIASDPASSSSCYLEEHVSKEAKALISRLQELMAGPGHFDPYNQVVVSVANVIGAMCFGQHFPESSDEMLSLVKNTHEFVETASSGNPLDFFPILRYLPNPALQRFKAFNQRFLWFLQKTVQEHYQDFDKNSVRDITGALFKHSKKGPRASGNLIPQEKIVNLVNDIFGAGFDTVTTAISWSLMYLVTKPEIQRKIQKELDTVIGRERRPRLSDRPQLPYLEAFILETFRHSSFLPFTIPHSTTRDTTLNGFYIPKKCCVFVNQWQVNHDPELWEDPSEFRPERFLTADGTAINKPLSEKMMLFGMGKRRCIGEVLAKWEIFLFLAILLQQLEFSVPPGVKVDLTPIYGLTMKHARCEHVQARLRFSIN
Assay: Cytochrome panel assay with activity outcomes
Details: recombinant CYP, pro-luciferin dealkylation, luminescence, p450-cyp1a2; series mostly up to 57.1 µM
Among all 16,000 compounds or so, about 5,700 (36%) were called active. About 24% were inconclusive and are not listed. Calls come from the whole dose curve; as a rule, active = well fitted curve in the direction sought with a large enough effect; inconclusive = small, poorly fitted or top-dose-only effect, or effect the other way; inactive = no such curve, though single readings can be large or run the other way. The list shows a part of the results.
Please state which outcome applies, choosing from yes (1) (active), no (0) (inactive)

What classification did CCC(C)Nc1c([N+](=O)[O-])cc(C)cc1[N+](=O)[O-] (stereo unspecified) end up with in this test?
yes (1)

What classification did CN(C)c1ncc2ncc(=O)n(Cc3cccs3)c2n1 end up with in this test?
yes (1)

What classification did O=C(CSCc1ccc(Cl)cc1)Nc1nccs1 end up with in this test?
yes (1)

What classification did COc1ccc(-c2nnc3n2N=C(C)CS3)cc1 end up with in this test?
yes (1)

What classification did O=C(O)CCC(=O)N1CCOc2ccc(Cl)cc21 end up with in this test?
no (0)

What classification did C/C(=N\NC(=O)CSCc1ccc(Cl)cc1)c1ccc2c(c1)OCCO2 end up with in this test?
yes (1)
